- TEST SYSTEM: UniProt:Q99571
- Sequence (whole entry): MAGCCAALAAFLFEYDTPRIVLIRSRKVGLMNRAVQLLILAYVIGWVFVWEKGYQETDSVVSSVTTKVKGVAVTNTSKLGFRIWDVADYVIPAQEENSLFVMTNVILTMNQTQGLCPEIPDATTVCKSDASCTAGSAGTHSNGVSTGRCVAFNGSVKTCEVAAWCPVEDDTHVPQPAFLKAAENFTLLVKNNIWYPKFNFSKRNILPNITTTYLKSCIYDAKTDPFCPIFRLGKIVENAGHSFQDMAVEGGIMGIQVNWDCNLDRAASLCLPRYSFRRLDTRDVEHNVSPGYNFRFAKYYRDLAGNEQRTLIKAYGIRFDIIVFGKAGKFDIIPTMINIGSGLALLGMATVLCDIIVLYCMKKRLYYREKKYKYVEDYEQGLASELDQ
- METHOD DESCRIPTION: Antagonist activity at human P2X4 receptor expressed in human 1321N1 cells assessed as reduction in intracellular Ca2+ influx incubated for 30 mins by Fura-2 AM based fluorescence assay relative to control
- Format: cell-based
Please enter t where inhibition is greater than or equal to 30%, and f where it is lower.

## Input Threshold query (inhibition >= 30%) on Cc1cc(Br)ccc1NC(=S)NC(=O)C12CC3CC(CC(C3)C1)C2
## Output t
